src = patent US11214803B2

- Test system: Yap1 mRNA
- PROTOCOL: Dose-dependent inhibition of human Yap1 in A-431 cells (Example 7, 10,000 cells per well, RTS36584)
- Type: cell-based
- SETUP CONDITIONS: Table 61, 4000.00 nM, free uptake, A-431 cells 10,000 cells per well, 48 hours
Strand notation (5' to 3'): a small letter for the sugar, then the base; units joined by * are phosphorothioate-linked, units joined directly phosphodiester-linked; [ ] holds rarer units or linkages, { } end groups; capitals alone tell only the bases. k = constrained ethyl (cEt); [5mC] = 5-methylcytosine; d = 2'-deoxy (DNA)
Recorded Yap1 mRNA, % UTC by entry
Return type: number; implicit unit % UTC.

Worked examples, 10 substances total:
SUBSTANCE	TARGET UNDER TEST	Yap1 mRNA, % UTC, % UTC
958509 (kA*kT*kG*dT*dT*dA*dT*dG*dT*dT*dT*dG*dG*kG*kT*kG; antisense) [compound 958509]	Yap1 mRNA	7
958729 (kG*kT*k[5mC]*dA*dG*dT*dT*dA*dT*d[5mC]*d[5mC]*dT*dA*kT*k[5mC]*kT; antisense) [compound 958729]	Yap1 mRNA	4
958484 (kG*k[5mC]*kA*dG*d[5mC]*dA*dA*dT*dG*dG*dA*d[5mC]*dA*kA*kG*kG; antisense) [compound 958484]	Yap1 mRNA	4
958529 (k[5mC]*kA*kA*dG*dT*d[5mC]*dT*dT*dG*dT*dA*dA*dG*kT*kA*kA; antisense) [compound 958529]	Yap1 mRNA	11
958589 (kG*kT*kA*dA*dA*dG*dG*dA*dA*dG*dA*dT*d[5mC]*kT*k[5mC]*k[5mC]; antisense) [compound 958589]	Yap1 mRNA	8
958534 (kT*kT*k[5mC]*dA*dG*d[5mC]*dA*dT*dA*dG*dA*dA*dG*kT*kA*kG; antisense) [compound 958534]	Yap1 mRNA	9
958724 (kT*k[5mC]*kA*dG*dT*dT*dA*dT*d[5mC]*d[5mC]*dT*dA*dT*k[5mC]*k[5mC]*k[5mC]; antisense) [compound 958724]	Yap1 mRNA	6
958474 (kG*kT*kG*dT*d[5mC]*dT*d[5mC]*d[5mC]*dT*dT*dA*dG*dA*kT*k[5mC]*k[5mC]; antisense) [compound 958474]	Yap1 mRNA	11
958569 (kA*kG*k[5mC]*d[5mC]*dT*dT*dA*dG*dA*dG*dT*d[5mC]*dA*kA*kT*kT; antisense) [compound 958569]	Yap1 mRNA	7
958579 (kA*kT*k[5mC]*dT*dT*dA*dA*dT*d[5mC]*dT*dG*dT*dG*kG*k[5mC]*kT; antisense) [compound 958579]	Yap1 mRNA	12

Query: Fill in Yap1 mRNA, % UTC for record 958659 (kG*kT*kT*dG*dT*dA*dT*dT*dA*d[5mC]*dT*d[5mC]*dT*k[5mC]*k[5mC]*kA; antisense) [compound 958659]
Reply: 9

Query: Recall and state the measured Yap1 mRNA, % UTC for 958644 (kA*kT*kG*dA*dT*d[5mC]*dA*dA*dA*d[5mC]*d[5mC]*dT*dT*kT*kT*k[5mC]; antisense) [compound 958644] .
Reply: 24

Query: Please supply the value of reported Yap1 mRNA, % UTC for the item 958599 (kT*kT*k[5mC]*dA*dA*dG*dA*dA*dT*dA*d[5mC]*d[5mC]*d[5mC]*kA*kG*kT; antisense) [compound 958599]
Reply: 16
